These entries and their values trace back to patent US8778966B2.

Recorded IC50, one value per entry.
Molecular target: Human PARP-1 enzyme (Homo sapiens, UniProt P09874)
Construct: purchased Trevigen
Sequence (P09874 whole entry): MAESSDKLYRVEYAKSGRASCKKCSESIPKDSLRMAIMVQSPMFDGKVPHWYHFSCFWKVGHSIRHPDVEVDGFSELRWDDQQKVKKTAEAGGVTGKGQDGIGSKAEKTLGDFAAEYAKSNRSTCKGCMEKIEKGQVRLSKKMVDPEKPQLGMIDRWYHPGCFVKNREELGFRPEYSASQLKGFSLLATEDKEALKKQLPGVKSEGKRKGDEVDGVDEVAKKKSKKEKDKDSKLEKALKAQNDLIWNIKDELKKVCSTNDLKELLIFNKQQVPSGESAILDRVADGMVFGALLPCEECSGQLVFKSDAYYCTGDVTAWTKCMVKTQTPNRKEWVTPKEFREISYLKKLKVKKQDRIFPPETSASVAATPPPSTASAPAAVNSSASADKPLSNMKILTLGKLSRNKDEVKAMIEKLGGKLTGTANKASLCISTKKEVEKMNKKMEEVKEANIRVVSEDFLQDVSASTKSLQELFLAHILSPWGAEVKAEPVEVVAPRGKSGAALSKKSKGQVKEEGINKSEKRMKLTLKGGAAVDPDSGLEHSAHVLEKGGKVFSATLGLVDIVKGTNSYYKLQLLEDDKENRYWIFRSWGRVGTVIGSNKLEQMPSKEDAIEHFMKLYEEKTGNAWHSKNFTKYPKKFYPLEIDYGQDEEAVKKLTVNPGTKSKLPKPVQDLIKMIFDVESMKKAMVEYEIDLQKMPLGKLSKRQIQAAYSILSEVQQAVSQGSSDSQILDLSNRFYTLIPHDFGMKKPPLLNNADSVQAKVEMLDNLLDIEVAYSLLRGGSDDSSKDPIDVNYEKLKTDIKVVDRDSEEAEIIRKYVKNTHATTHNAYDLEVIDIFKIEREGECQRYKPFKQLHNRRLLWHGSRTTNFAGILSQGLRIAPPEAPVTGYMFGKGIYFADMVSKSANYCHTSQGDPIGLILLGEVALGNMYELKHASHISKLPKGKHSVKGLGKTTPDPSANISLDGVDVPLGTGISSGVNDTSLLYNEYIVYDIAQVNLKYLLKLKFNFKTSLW
Experiment: In vitro Scintillation Proximity Assay (SPA) for PARP-1 inhibitory activity
Assay type: biochemical
Details: read-out: in vitro SPA assay PARP-1 pIC50 (converted)

{"compound": "CCc1cc2ccc(C(C)(C#N)Cc3cccc(CN4CCOCC4)c3)cc2[nH]c1=O (stereo not shown)", "IC50 / nM": 501}
{"compound": "CCc1cc2ccc(C(C)(C#N)Cc3ccnc(C#N)c3)cc2[nH]c1=O (stereo not shown)", "IC50 / nM": 39.8}
{"compound": "CCc1cc2ccc(C(C)(C#N)Cc3cccc(I)c3)cc2[nH]c1=O (stereo not shown)", "IC50 / nM": 1000}
{"compound": "CCc1cc2ccc([C@](C)(C#N)Cc3nc(OC)cc(OC)n3)cc2[nH]c1=O (single isomer, unassigned)", "IC50 / nM": 200}

---

Recorded log10 IC50, one value per entry.
Biological target: Human PARP-1 enzyme (Homo sapiens)
Construct: purchased Trevigen
Assay: In vitro Scintillation Proximity Assay (SPA) for PARP-1 inhibitory activity
Assay type: biochemical
Details: read-out: in vitro SPA assay PARP-1 pIC50 (converted)
assayReadout: log10 IC50 (log10 of the value in nM)

{"molecule": "Cc1cc2ccc(C(C)(C#N)C3CCc4cc(Br)ccc43)cc2[nH]c1=O (centres unmarked) [Compound 244]", "assayReadout": "log10 IC50", "observedMeasurement": 2.30}
{"molecule": "CCc1cc2ccc(C(C)(C#N)Cc3cc4c(cc3Cl)OCO4)cc2[nH]c1=O (centres unmarked) [Compound 91]", "assayReadout": "log10 IC50", "observedMeasurement": 3.10}
{"molecule": "C=Cc1cccc(CC(C)(C#N)c2ccc3cc(CC)c(=O)[nH]c3c2)c1 (centres unmarked) [Compound 172]", "assayReadout": "log10 IC50", "observedMeasurement": 2.00}
{"molecule": "CCc1cc2ccc(C(C)(C#N)CNCc3ccc(C#N)cc3)cc2[nH]c1=O (centres unmarked) [Compound 302]", "assayReadout": "log10 IC50", "observedMeasurement": 2.10}
{"molecule": "CCc1cc2ccc(C(C)(C#N)Cc3ccc(OC(F)(F)F)cc3)cc2[nH]c1=O (centres unmarked) [Compound 114]", "assayReadout": "log10 IC50", "observedMeasurement": 3.00}
{"molecule": "CCc1cc2ccc(C(C)(C#N)CN(C)Cc3ccccc3)cc2[nH]c1=O (centres unmarked) [Compound 189]", "assayReadout": "log10 IC50", "observedMeasurement": 2.60}
{"molecule": "Cc1cc2ccc([C@@](C)(C#N)[C@@H]3CCc4ccc(Br)cc43)cc2[nH]c1=O [Compound 408]", "assayReadout": "log10 IC50", "observedMeasurement": 2.40}
{"molecule": "CCc1cc2ccc(C(C)(C#N)Cc3cccc(C(=O)OC)c3)cc2[nH]c1=O (centres unmarked) [Compound 12]", "assayReadout": "log10 IC50", "observedMeasurement": 2.70}

---

Recorded tubulin polymerisation score, one value per entry.
Tested on: tubulin
Assay: Tubulin polymerization assay
Type: biochemical
Design: key: a compound showing 0 to 50% inhibition at 20 μM is reported as score 1; Score 2 compounds are defined as compound showing more than 50% inhibition at 20 μM and less than 50% inhibition at 5 μM; a compound showing more than 50% inhibition at 5 μM is reported as score 3
Conditions: tested at 20 μM and 5 μM
assayReadout: tubulin polymerisation score

{"compound": "CCc1cc2ccc(C(C)(C#N)Cc3cccc(C(F)(F)F)c3)cc2[nH]c1=O (stereo not shown) [Compound 109]", "testedSystem": "tubulin", "assayReadout": "tubulin polymerisation score", "observedMeasurement": 2}
{"compound": "CCc1cc2ccc(C(C)(C#N)CCOc3ncc(Br)cn3)cc2[nH]c1=O (stereo not shown) [Compound 349]", "testedSystem": "tubulin", "assayReadout": "tubulin polymerisation score", "observedMeasurement": 2}

---

Test system: PC3 cells
Test: EB1 Comet (microtubule disruption) assay
Type: cell-based, human
Conditions: Homo sapiens, PC-3, 1 h, 1 hour treatment, read-out: EB1 pLAC (converted)
Would you please tag the item Satisfied when its minimal effective concentration is 1 µM or above, and Not satisfied when it is below?

{"compound": "CCc1cc2ccc([C@](C)(C#N)CN(C)Cc3ccc(C#N)cc3)cc2[nH]c1=O [Compound 190]", "answerLabel": "Satisfied"}
{"compound": "CCc1cc2ccc(C(C#N)(Cc3ccccc3)c3ccccc3)cc2[nH]c1=O (centres unmarked) [Compound 27]", "answerLabel": "Satisfied"}
{"compound": "CCc1cc2ccc(C(C)(C#N)Cc3cc(Cl)nc(OC)c3)cc2[nH]c1=O (centres unmarked) [Compound 351]", "answerLabel": "Not satisfied"}
{"compound": "Cc1cc2ccc(C(C)(C#N)Cc3cccc4cccnc34)cc2[nH]c1=O (centres unmarked) [Compound 74]", "answerLabel": "Satisfied"}
{"compound": "CCC(=O)c1cccc(CC(C)(C#N)c2ccc3cc(C)c(=O)[nH]c3c2)c1 (centres unmarked) [Compound 173]", "answerLabel": "Not satisfied"}

---

Target: TANK-2 enzyme (Homo sapiens, UniProt Q9H2K2)
Construct: made in house
Sequence (Q9H2K2 whole entry): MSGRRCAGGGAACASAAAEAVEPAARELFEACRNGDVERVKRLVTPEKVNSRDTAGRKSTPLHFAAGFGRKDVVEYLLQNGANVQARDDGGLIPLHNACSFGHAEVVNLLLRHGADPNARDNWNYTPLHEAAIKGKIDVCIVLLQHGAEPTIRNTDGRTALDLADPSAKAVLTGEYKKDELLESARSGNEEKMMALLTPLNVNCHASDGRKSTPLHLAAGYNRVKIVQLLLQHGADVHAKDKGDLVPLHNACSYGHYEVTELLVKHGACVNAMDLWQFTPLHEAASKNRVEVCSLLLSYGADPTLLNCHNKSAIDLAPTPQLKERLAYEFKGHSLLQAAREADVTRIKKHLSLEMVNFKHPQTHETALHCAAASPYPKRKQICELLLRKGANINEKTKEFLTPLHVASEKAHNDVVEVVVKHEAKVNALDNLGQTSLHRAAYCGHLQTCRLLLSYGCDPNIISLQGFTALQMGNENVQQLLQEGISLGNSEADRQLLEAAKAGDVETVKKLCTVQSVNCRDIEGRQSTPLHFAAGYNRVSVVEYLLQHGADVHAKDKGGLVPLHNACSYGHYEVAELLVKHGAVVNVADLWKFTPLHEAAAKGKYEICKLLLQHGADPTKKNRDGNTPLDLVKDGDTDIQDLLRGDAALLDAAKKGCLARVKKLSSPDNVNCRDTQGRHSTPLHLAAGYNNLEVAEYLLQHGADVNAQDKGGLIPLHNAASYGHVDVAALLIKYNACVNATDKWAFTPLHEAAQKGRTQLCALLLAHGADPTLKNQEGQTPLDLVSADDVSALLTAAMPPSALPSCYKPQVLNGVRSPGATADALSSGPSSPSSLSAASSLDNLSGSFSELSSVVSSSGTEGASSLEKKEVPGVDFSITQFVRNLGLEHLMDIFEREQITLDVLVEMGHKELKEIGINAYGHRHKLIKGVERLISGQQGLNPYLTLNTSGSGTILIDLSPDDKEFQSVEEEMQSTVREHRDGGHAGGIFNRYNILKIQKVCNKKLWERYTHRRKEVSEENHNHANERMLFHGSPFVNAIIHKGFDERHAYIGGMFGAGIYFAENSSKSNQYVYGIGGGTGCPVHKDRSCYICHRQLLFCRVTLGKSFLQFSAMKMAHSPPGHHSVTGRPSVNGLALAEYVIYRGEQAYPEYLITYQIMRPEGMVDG
Assay: In vitro Scintillation Proximity Assay (SPA) for TANK-2 inhibitory activity
Format: biochemical
Settings: read-out: in vitro SPA assay TANK-2 pIC50 (converted)
Recorded IC50, one value per entry.

{"compound": "CCc1cc2ccc(C(C)(C#N)Cc3ccc(C(F)(F)F)nc3C)cc2[nH]c1=O (centres unmarked)", "testedSystem": "TANK-2 enzyme (Homo sapiens, UniProt Q9H2K2)", "valueUnits": "µM", "IC50": 0.794}
{"compound": "Cc1cc2ccc(C(C)(C#N)Cc3cccc(C#N)n3)cc2[nH]c1=O (centres unmarked)", "testedSystem": "TANK-2 enzyme (Homo sapiens, UniProt Q9H2K2)", "valueUnits": "µM", "IC50": 0.316}
{"compound": "CCc1cc2ccc(C(C)(C#N)Cc3cccc(C#N)c3)cc2[nH]c1=O (centres unmarked)", "testedSystem": "TANK-2 enzyme (Homo sapiens, UniProt Q9H2K2)", "valueUnits": "µM", "IC50": 0.0398}
{"compound": "CCc1cc2ccc(C(C)(C#N)Cc3cccc(S(C)(=O)=O)c3)cc2[nH]c1=O (centres unmarked)", "testedSystem": "TANK-2 enzyme (Homo sapiens, UniProt Q9H2K2)", "valueUnits": "µM", "IC50": 0.126}
{"compound": "CCc1cc2ccc(C(C)(C#N)CCOc3cccc(C(F)(F)F)c3)cc2[nH]c1=O (centres unmarked)", "testedSystem": "TANK-2 enzyme (Homo sapiens, UniProt Q9H2K2)", "valueUnits": "µM", "IC50": 2.51}
{"compound": "CCc1cc2ccc(C(C)(C#N)Cc3cccc(C(=O)NC)c3)cc2[nH]c1=O (centres unmarked)", "testedSystem": "TANK-2 enzyme (Homo sapiens, UniProt Q9H2K2)", "valueUnits": "µM", "IC50": 0.0631}
{"compound": "CCc1cc2ccc([C@](C)(C#N)CN(C)Cc3ccc(C#N)cc3)cc2[nH]c1=O", "testedSystem": "TANK-2 enzyme (Homo sapiens, UniProt Q9H2K2)", "valueUnits": "µM", "IC50": 0.251}
{"compound": "CCc1cc2ccc(C(C)(C#N)Cc3cccc(Br)c3)cc2[nH]c1=O (centres unmarked)", "testedSystem": "TANK-2 enzyme (Homo sapiens, UniProt Q9H2K2)", "valueUnits": "µM", "IC50": 0.0316}

---

Target: Human PARP-1 enzyme (Homo sapiens)
Construct: purchased Trevigen
Assay: In vitro Scintillation Proximity Assay (SPA) for PARP-1 inhibitory activity
Format: biochemical
Settings: read-out: in vitro SPA assay PARP-1 pIC50 (converted)
IC50 less than 100 nM is Condition met; IC50 greater than or equal to 100 nM is Condition not met.

{"compound": "CCc1cc2ccc(C(C#N)(CC)Cc3cccc(CN)c3)cc2[nH]c1=O (centres unmarked)", "testedSystem": "Human PARP-1 enzyme (Homo sapiens)", "answerLabel": "Condition met"}
{"compound": "CCC[C@@](C#N)(Cc1ccccc1)c1ccc2cc(CC)c(=O)[nH]c2c1 (single isomer, unassigned)", "testedSystem": "Human PARP-1 enzyme (Homo sapiens)", "answerLabel": "Condition not met"}
{"compound": "CCc1cc2ccc(C(C)(C#N)Cc3cccc(N4CCC(N(C)C)C4)n3)cc2[nH]c1=O (centres unmarked)", "testedSystem": "Human PARP-1 enzyme (Homo sapiens)", "answerLabel": "Condition met"}
{"compound": "CCc1cc2ccc(C(C)(C#N)Cc3cccc(CN)n3)cc2[nH]c1=O (centres unmarked)", "testedSystem": "Human PARP-1 enzyme (Homo sapiens)", "answerLabel": "Condition met"}
{"compound": "Cc1cc2ccc([C@@](C)(C#N)[C@@H]3CCc4cc(C#N)ccc43)cc2[nH]c1=O", "testedSystem": "Human PARP-1 enzyme (Homo sapiens)", "answerLabel": "Condition not met"}
{"compound": "CCc1cc2ccc(C(C)(C#N)Cc3cc(Cl)nc(C)n3)cc2[nH]c1=O (centres unmarked)", "testedSystem": "Human PARP-1 enzyme (Homo sapiens)", "answerLabel": "Condition not met"}
{"compound": "CCc1cc2ccc(C(C)(C#N)Cc3nc(OC)cc(OC)n3)cc2[nH]c1=O (centres unmarked)", "testedSystem": "Human PARP-1 enzyme (Homo sapiens)", "answerLabel": "Condition not met"}
{"compound": "CCc1cc2ccc(C(C)(C#N)Cc3cccc(CN(C)C)c3)cc2[nH]c1=O (centres unmarked)", "testedSystem": "Human PARP-1 enzyme (Homo sapiens)", "answerLabel": "Condition not met"}
{"compound": "CCc1cc2ccc(C(C)(C#N)Cc3ccc(OC)c(C#N)c3)cc2[nH]c1=O (centres unmarked)", "testedSystem": "Human PARP-1 enzyme (Homo sapiens)", "answerLabel": "Condition not met"}
{"compound": "CCc1cc2ccc(C(C)(C#N)Cc3ccc4nccnc4c3)cc2[nH]c1=O (centres unmarked)", "testedSystem": "Human PARP-1 enzyme (Homo sapiens)", "answerLabel": "Condition met"}
{"compound": "CCc1cc2ccc(C(C)(C#N)Cc3cccc(N4CCCCC4)c3)cc2[nH]c1=O (centres unmarked)", "testedSystem": "Human PARP-1 enzyme (Homo sapiens)", "answerLabel": "Condition not met"}
{"compound": "CCc1cc2ccc(C(C)(C#N)Cc3ccccc3)cc2[nH]c1=O (centres unmarked)", "testedSystem": "Human PARP-1 enzyme (Homo sapiens)", "answerLabel": "Condition not met"}
{"compound": "CCc1cc2ccc(C(C)(C#N)Cc3ccccc3OC(F)(F)F)cc2[nH]c1=O (centres unmarked)", "testedSystem": "Human PARP-1 enzyme (Homo sapiens)", "answerLabel": "Condition not met"}
{"compound": "CCc1cc2ccc(C(C)(C#N)Cc3cc(C#N)nc(C)n3)cc2[nH]c1=O (centres unmarked)", "testedSystem": "Human PARP-1 enzyme (Homo sapiens)", "answerLabel": "Condition not met"}
